# maps each entry to its microsomal CLint at 1 µM
PROTOCOL TEXT: Intrinsic clearance in human liver microsomes at 1 uM
Assay type: ADME
EXPERIMENTAL PARAMETERS: read-out: CLH
Please state the figure in µL/min/mg; there is no need to write the unit.

| COMPOUND | microsomal CLint at 1 µM / µL/min/mg |
| --- | --- |
| COc1cccc(OC)c1C1CC(C)CC(=O)N1Cc1ccc(OC(F)(F)F)cc1 (mixture of isomers) | 645 |

Lab note: next compound to report on.
# input Supply microsomal CLint at 1 µM value. Item: COc1cccc(OC)c1C1CCC(=O)N1Cc1ccc(OC(F)(F)F)cc1 (racemic)
# output 670

---

ASSAY TARGET: Cytochrome P450 3A4 (Homo sapiens, UniProt P08684)
Sequence (P08684 whole entry): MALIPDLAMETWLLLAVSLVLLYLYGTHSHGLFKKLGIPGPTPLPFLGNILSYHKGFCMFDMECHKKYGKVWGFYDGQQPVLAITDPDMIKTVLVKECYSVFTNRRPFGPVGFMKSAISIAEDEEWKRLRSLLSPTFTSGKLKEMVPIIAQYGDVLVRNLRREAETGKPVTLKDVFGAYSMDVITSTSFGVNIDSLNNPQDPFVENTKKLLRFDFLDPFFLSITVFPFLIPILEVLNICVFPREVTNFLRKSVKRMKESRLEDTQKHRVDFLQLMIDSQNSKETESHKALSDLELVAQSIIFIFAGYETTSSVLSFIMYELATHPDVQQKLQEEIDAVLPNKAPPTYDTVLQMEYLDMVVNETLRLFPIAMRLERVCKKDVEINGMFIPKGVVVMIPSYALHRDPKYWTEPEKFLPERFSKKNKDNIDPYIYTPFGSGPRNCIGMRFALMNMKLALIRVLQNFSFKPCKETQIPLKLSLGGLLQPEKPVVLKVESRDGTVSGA
pIC50: −log10 of the molar value.
PARAMETER MEASURED: pIC50

# input Would you please give the reported pIC50 of COc1cccc(OC)c1C1CCCC(=O)N1Cc1ccc2ccccc2n1 (single isomer, unassigned) with Cytochrome P450 3A4 (Homo sapiens, UniProt P08684)?
# output < 4.52

---

ASSAY TARGET: Cytochrome P450 2C9 (Homo sapiens)
Sequence (P11712 whole entry): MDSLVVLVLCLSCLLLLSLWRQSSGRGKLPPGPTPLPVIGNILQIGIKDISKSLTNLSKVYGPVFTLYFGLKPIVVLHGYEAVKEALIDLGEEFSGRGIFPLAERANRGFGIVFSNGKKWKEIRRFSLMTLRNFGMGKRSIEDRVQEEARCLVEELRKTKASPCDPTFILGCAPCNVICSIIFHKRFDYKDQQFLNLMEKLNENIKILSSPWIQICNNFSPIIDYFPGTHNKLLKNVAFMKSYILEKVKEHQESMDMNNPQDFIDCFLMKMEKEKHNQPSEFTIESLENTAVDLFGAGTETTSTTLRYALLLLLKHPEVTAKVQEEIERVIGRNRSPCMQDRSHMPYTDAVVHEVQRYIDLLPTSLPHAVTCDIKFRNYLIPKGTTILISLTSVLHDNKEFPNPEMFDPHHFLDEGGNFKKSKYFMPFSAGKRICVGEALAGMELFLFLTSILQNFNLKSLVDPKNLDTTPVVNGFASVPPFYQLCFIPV
pIC50: −log10 of the molar value.
PARAMETER MEASURED: pIC50

# input Supply pIC50 value. Item: COc1cccc(OC)c1C1CCCC(=O)N1Cc1ccc2ccccc2n1 (single isomer, unassigned)
# output < 4.52

---

ASSAY TARGET: Orexin receptor type 2 (Homo sapiens)
Sequence (O43614 whole entry): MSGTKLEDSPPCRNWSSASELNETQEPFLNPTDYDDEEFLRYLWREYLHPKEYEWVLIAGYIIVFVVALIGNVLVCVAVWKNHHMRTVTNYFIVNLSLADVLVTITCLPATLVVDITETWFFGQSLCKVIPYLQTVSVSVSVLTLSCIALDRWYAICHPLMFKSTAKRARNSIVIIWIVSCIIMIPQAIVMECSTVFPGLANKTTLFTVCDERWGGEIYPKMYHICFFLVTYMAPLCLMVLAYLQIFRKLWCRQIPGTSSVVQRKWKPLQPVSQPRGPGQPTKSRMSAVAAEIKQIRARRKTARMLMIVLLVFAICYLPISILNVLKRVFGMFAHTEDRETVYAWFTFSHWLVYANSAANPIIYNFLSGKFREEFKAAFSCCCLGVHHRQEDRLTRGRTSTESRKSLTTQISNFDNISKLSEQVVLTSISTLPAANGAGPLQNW
PROTOCOL TEXT: Antagonist activity at human orexin 2 receptor expressed in CHO cells assessed as inhibition of orexin-A-induced calcium mobilization by FLIPR assay
# maps each entry to its pIC50
Notebook: values listed as pIC50 are -log10 of the concentration (mol/L).

| MOLECULE | pIC50 |
| --- | --- |
| COc1cccc(OC)c1C1CC(C)C(=O)N1Cc1ccc2oc3ccccc3c2c1 (mixture of isomers) | 8.05 |
| COc1cccc(OC)c1C1CCCC(=O)N1Cc1ccc(Oc2ccccc2)cc1 (racemic) | 7.54 |
| COc1cccc(F)c1C1CCCC(=O)N1Cc1ccc(OC(F)(F)F)cc1 (racemic) | 6.79 |
| COc1cccc(OC)c1C1CCCC(=O)N1Cc1cccc(-c2ccccc2)c1 (racemic) | 7.55 |

# input Would you please give the reported pIC50 of COc1cccc(OC)c1C1CCCC(=O)N1Cc1ccc2sc(C)nc2c1 (racemic) with Orexin receptor type 2 (Homo sapiens)?
# output 7.92

# input Would you please give the reported pIC50 of COc1cccc(OC)c1C1CCCC(=O)N1Cc1csc(-c2ccccc2)n1 (racemic) with Orexin receptor type 2 (Homo sapiens)?
# output 8.22

# input Would you please give the reported pIC50 of COc1cccc(OC)c1C1CCCC(=O)N1Cc1ccccc1 (racemic) with Orexin receptor type 2 (Homo sapiens)?
# output 6.38

---

PROTOCOL TEXT: Intrinsic clearance in human liver microsomes at 1 uM
Assay type: ADME
EXPERIMENTAL PARAMETERS: read-out: CLH
PARAMETER MEASURED: microsomal CLint at 1 µM

Example entries and their recorded answers appear below.
| COMPOUND | OBSERVED |
| --- | --- |
| COc1cccc(OC)c1C1CCCCC(=O)N1Cc1ccc(OC(F)(F)F)cc1 (racemic) | > 1250 µL/min/mg |
| COc1cccc(OC)c1C1COCC(=O)N1Cc1ccc(OC(F)(F)F)cc1 (racemic) | > 1250 µL/min/mg |
| COc1cccc(OC)c1C1CCCC(=O)N1Cc1ccc2oc3ccccc3c2c1 (racemic) | 1200 µL/min/mg |
| COc1cccc(OC)c1C1CCCC(=O)N1Cc1ccnc(-n2cccn2)c1 (racemic) | > 1250 µL/min/mg |

# input Supply microsomal CLint at 1 µM value. Item: COc1cccc(OC)c1C1CCCC(=O)N1C(C)c1ccc(OC(F)(F)F)cc1 (mixture of isomers)
# output > 1250 µL/min/mg

Origin of measurements: ChEMBL document CHEMBL3112474
